Assay: Acute toxicity LD50 per os in the rat
Details: in vivo, po
READOUT NAME: LD50 (mg/kg)

1) CC(C)CC(=O)CC(=O)c1ccccc1 [Isovaleroylacetophenone, isovalerylbenzoylmethane]: 4880

* * *

Experiment: Physical state
Assay type: physicochemical
READOUT NAME: Physical state

1) CCCCCCC(=O)CC(=O)c1ccccc1 [Heptanoylacetophenone, heptanoyl-benzoylmethane]: Liquid
2) CC(C)CC(=O)CC(=O)c1ccccc1 [Isovaleroylacetophenone, isovalerylbenzoylmethane]: Liquid
3) CCCCCCCC(=O)CC(=O)c1ccccc1 [Octanoylacetophenone, Octanoylbenzoylmethane]: Solid
4) O=C(CC(=O)c1ccccc1)c1ccccc1 [Dibenzoylmethane, dibenzoylmethane]: Solid

* * *

Experiment: Vapor pressure at 180° C.
Type: physicochemical
READOUT NAME: Vapor pressure at 180° C.

1) CCCCCCCC(=O)CC(=O)c1ccccc1: 5.6 mmHg
2) CC(C)CC(=O)CC(=O)c1ccccc1: 28 mmHg
3) O=C(CC(=O)c1ccccc1)c1ccccc1: 4 mmHg
4) CCCCCCC(=O)CC(=O)c1ccccc1: 7 mmHg
